Test system: FAO
TEST METHOD NOTES: FAO SC 150 / FAO Max
READOUT: FAO Max: concentration at which the maximum was seen (µg/mL)
Give the value in µg/mL but do not write µg/mL after it.

The following compounds have reported results that may help.
{"COMPOUND": "CCCCCCCCC1(C)SC(=O)C=C1OCC(=O)NNc1nc2ccccc2s1 (single isomer, unassigned)", "TARGET": "FAO", "OUTPUT UNIT": "µg/mL", "DATA VALUE": 6.25}
{"COMPOUND": "CCCCCCCCC1(C)SC(=O)C=C1OCC(=O)NNc1cccc(C)c1 (stereo not shown)", "TARGET": "FAO", "OUTPUT UNIT": "µg/mL", "DATA VALUE": 1.56}
{"COMPOUND": "CCCCCCCCC1(C)SC(=O)C=C1OCC(=O)NNc1cc(C(F)(F)F)ccc1Cl (stereo not shown)", "TARGET": "FAO", "OUTPUT UNIT": "µg/mL", "DATA VALUE": 6.25}

Exercise: Given the entry CCCCCCCCC1(C)SC(=O)C=C1OCC(=O)NNc1ccccc1 (stereo not shown) , report its measured FAO Max: concentration at which the maximum was seen.
Solution: 6.25

Exercise: # query: FAO Max: concentration at which the maximum was seen of entry CCCCCCCCC1(C)SC(=O)C=C1OCC(=O)NNC(=O)c1ccncc1 (stereo not shown)
Solution: 0.125

Exercise: # FAO Max: concentration at which the maximum was seen lookup, item CCCCCCCCC1(C)SC(=O)C=C1OCC(=O)NNc1ccccc1Cl (stereo not shown)
Solution: 0.125
